Just for reference, patent US8318781B2 is where these values come from.

target: human GPR40 (hGPR40) (Homo sapiens, UniProt O14842); construct: expressed in transfected cells; doxycycline-inducible expression vector; test: Determination of intracellular Ca2+ concentration (FLIPR), cell line TXGPR40; type: cell-based; conditions: TXGPR40 cells, maximum fluorescence intensity vs ligand concentration; read-out: [Ca^2+]/GPR40 pEC50 (converted)
Sequence (O14842 whole entry): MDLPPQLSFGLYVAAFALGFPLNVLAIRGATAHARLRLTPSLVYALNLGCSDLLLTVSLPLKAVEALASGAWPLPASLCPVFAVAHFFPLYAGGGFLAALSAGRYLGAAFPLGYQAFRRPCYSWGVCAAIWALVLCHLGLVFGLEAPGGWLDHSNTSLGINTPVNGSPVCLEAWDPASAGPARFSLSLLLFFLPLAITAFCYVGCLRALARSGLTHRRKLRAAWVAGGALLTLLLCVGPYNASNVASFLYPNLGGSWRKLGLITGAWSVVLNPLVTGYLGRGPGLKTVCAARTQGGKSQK
readout_kind: EC50 (µM)

Example cases with answers are listed next.
# compound, system_tested, readout_kind, endpoint_result
measured = [
    ("CCCCCN(CCOc1ccc(CCC(=O)O)cc1)c1ccccn1 [NCP05]", "human GPR40 (hGPR40) (Homo sapiens, UniProt O14842)", "EC50", 5.62),
    ("CCN(CCOc1ccc(CCC(=O)O)cc1)c1ccccn1 [NCP02]", "human GPR40 (hGPR40) (Homo sapiens, UniProt O14842)", "EC50", 3.39),
    ("CN(C)c1ccc(N(CCOc2ccc(CCCC(=O)O)cc2)c2ccccn2)cc1 [NCG54]", "human GPR40 (hGPR40) (Homo sapiens, UniProt O14842)", "EC50", 24),
]

a: COc1cccc(N(CCOc2ccc(CCCC(=O)O)cc2)c2ccccc2)n1 [NCG37]
b: O=C(O)CCc1ccc(OCCCN(c2ccccc2)c2ccccn2)cc1 [NCG28]
Returns the identifier with the smallest measured EC50 among a and b . API: response body contains the label of the selected item.
b
(b: 1.12 µM, a: 16.2 µM)

###

biological target: human GPR40 (hGPR40) (Homo sapiens, UniProt O14842); construct: expressed in transfected cells; doxycycline-inducible expression vector; test: Determination of intracellular Ca2+ concentration (FLIPR), cell line TXGPR40; type: cell-based
readout_kind: EC50 (µM)

Answered cases to consult:
# chemical_string, system_tested, EC50 / µM
data = [
    ("O=C(O)CCCc1ccc(OCCN(c2ccccc2)c2ccccc2)cc1", "human GPR40 (hGPR40) (Homo sapiens, UniProt O14842)", 20.9),
    ("Cc1ccnc(N(CCOc2ccc(CCCC(=O)O)cc2)c2ccccc2)c1", "human GPR40 (hGPR40) (Homo sapiens, UniProt O14842)", 22.4),
    ("O=C(O)CCCCc1ccc(OCCN(c2ccccc2)c2ccccn2)cc1", "human GPR40 (hGPR40) (Homo sapiens, UniProt O14842)", 7.76),
]

1: O=C(O)CCCc1ccc(OCCN(c2ccccc2)c2cc(Cl)ccn2)cc1
2: Cc1cccc(N(CCOc2ccc(CCCC(=O)O)cc2)c2ccccc2)n1
// pick larger EC50 from pair: 1 vs 2 Let me know the label of the one you choose.
2
(2: 13.5 µM, 1: 7.76 µM)

I: O=C(O)CCCc1ccc(OCCN(c2ccccc2)c2nc3ccccc3s2)cc1
II: CCCCN(CCOc1ccc(CCCC(=O)O)cc1)c1ccccn1
Looking at I and II , which one comes out lower in EC50 terms? Returns: label corresponding to the selected item.
I

###

molecular target: human GPR120 (hGPR120) (Homo sapiens); construct: expressed in transfected cells; doxycycline-inducible expression vector; assay: Determination of intracellular Ca2+ concentration (FLIPR), cell line TXGPR120; type: cell-based; conditions: relative fluorescence intensity vs LA at 10 μM, TXGPR120 cells
readout_kind: [Ca^2+]/GPR120 10 μM (ratio vs. LA)

Examples with answers:
# chemical_string, system_tested, endpoint_result
measured = [
    ("COc1cccc(N(CCOc2ccc(CCCC(=O)O)cc2)c2ccccc2)n1", "human GPR120 (hGPR120) (Homo sapiens)", 0.56),
    ("CCCCCN(CCOc1ccc(CCC(=O)O)cc1)c1ccccn1", "human GPR120 (hGPR120) (Homo sapiens)", 0.00),
    ("CN(C)c1ccc(N(CCOc2ccc(CCCC(=O)O)cc2)c2ccccn2)cc1", "human GPR120 (hGPR120) (Homo sapiens)", 0.66),
    ("Cc1cccc(N(CCOc2ccc(CCCC(=O)O)cc2)c2ccccc2)n1", "human GPR120 (hGPR120) (Homo sapiens)", 0.56),
    ("O=C(O)CCCc1ccc(OCCN(c2ccccc2)c2nc3ccccc3s2)cc1", "human GPR120 (hGPR120) (Homo sapiens)", 0.61),
]

P: O=C(O)CCc1ccc(OCCN(c2ccccc2)c2ccccn2)cc1
Q: Cc1ccnc(N(CCOc2ccc(CCCC(=O)O)cc2)c2ccccc2)c1
R: O=C(O)CCCc1ccc(OCCN(c2ccccc2)c2cccnc2)cc1
S: O=C(O)CCCc1ccc(OCCN(c2ccccc2)c2nccs2)cc1
Sort the 4 compounds by [Ca^2+]/GPR120 10 μM (ratio vs. LA); largest first, smallest last. Reply: labels, ordered per the request.
S, R, Q, P

1: c1ccc(Oc2cccc(CNc3ccc(CCc4nnn[nH]4)cc3)c2)cc1
2: O=C(O)CCCc1ccc(OCCN(c2ccccc2)c2ncccn2)cc1
Hi team, can someone confirm which has the larger [Ca^2+]/GPR120 10 μM (ratio vs. LA): 1 or 2 ? Thanks. The response must carry the label of the picked entry.
2

###

Molecular target: human GPR120 (hGPR120) (Homo sapiens, UniProt Q5NUL3)
Construct: expressed in transfected cells; doxycycline-inducible expression vector
Sequence (Q5NUL3 1-361): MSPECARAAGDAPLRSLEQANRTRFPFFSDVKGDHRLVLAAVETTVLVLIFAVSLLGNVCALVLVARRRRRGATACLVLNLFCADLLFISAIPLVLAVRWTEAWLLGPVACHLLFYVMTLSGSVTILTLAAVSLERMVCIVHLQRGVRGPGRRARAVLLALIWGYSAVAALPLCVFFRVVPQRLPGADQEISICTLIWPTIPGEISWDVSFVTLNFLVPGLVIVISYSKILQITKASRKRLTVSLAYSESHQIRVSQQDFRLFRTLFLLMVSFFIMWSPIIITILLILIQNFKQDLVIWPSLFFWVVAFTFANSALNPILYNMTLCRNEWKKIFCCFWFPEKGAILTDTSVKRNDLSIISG
Assay: Determination of intracellular Ca2+ concentration (FLIPR), cell line GPR120/Flp-in
Assay type: cell-based
Conditions: relative fluorescence intensity vs LA at 10 μM, GPR120/Flp-in cells
readout_kind: [Ca^2+]/GPR120/Flp-In 10 μM (ratio vs. LA)

# molecule, endpoint_result
records = [
    ("O=C(O)CCCc1ccc(OCCN(c2ccccc2)c2nccs2)cc1 [NCG46]", 1.06),
    ("O=C(O)CCCc1ccc(OCCN(c2ccccc2)c2nc3ccccc3s2)cc1 [NCG31]", 0.73),
    ("O=C(O)CCCc1ccc(OCCN(c2ccccc2)c2ncccn2)cc1 [NCG44]", 0.85),
]

I: O=C(O)CCc1ccc(NCc2cccc3ncccc23)cc1 [NCG14]
II: Cc1cccc(N(CCOc2ccc(CCCC(=O)O)cc2)c2ccccc2)n1 [NCG38]
Field: entry with larger [Ca^2+]/GPR120/Flp-In 10 μM (ratio vs. LA) (options I / II ). Identify your pick by its label.
II

###

Target: human GPR120 (hGPR120) (Homo sapiens, UniProt Q5NUL3)
Construct: expressed in transfected cells; doxycycline-inducible expression vector
Sequence (Q5NUL3 1-361): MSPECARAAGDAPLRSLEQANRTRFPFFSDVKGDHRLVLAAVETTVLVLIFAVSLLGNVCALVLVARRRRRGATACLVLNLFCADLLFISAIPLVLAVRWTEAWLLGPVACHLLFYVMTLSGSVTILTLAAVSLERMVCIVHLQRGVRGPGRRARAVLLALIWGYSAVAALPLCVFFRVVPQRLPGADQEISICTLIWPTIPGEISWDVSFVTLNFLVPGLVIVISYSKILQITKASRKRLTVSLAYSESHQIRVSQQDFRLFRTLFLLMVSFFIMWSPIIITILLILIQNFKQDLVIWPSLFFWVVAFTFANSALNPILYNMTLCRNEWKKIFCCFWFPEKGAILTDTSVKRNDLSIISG
Assay: Determination of intracellular Ca2+ concentration (FLIPR), cell line TXGPR120
Assay type: cell-based
Conditions: relative fluorescence intensity vs LA at 10 μM, TXGPR120 cells
readout_kind: [Ca^2+]/GPR120 10 μM (ratio vs. LA)

# chemical_string, endpoint_result
records = [
    ("CCN(CCOc1ccc(CCC(=O)O)cc1)c1ccccn1", 0.00),
    ("CCCCN(CCOc1ccc(CCC(=O)O)cc1)c1ccccn1", 0.00),
    ("O=C(O)CCc1ccc(NCc2cccc3ncccc23)cc1", 0.00),
]

###

target: human GPR120 (hGPR120) (Homo sapiens); construct: expressed in transfected cells; doxycycline-inducible expression vector; test: Determination of intracellular Ca2+ concentration (FLIPR), cell line GPR120/Flp-in; format: cell-based; conditions: relative fluorescence intensity vs LA at 10 μM, GPR120/Flp-in cells
readout_kind: [Ca^2+]/GPR120/Flp-In 10 μM (ratio vs. LA)

# molecule, endpoint_result
data = [
    ("Cc1ccnc(N(CCOc2ccc(CCCC(=O)O)cc2)c2ccccc2)c1 [NCG34]", 0.81),
    ("O=C(O)CCCc1ccc(OCCN(c2ccccc2)c2cccnc2)cc1 [NCG30]", 0.88),
    ("c1ccc(Oc2cccc(CNc3ccc(CCc4nnn[nH]4)cc3)c2)cc1 [NCG17]", 0.59),
    ("CCCCN(CCOc1ccc(CCC(=O)O)cc1)c1ccccn1 [NCP04]", 0.33),
    ("CCN(CCOc1ccc(CCC(=O)O)cc1)c1ccccn1 [NCP02]", 0.45),
]

I: O=C(O)CCc1ccc(OCCCN(c2ccccc2)c2ccccn2)cc1 [NCG28]
II: O=C(O)CCCc1ccc(OCCN(c2ccccc2)c2cc(Cl)ccn2)cc1 [NCG35]
Of I and II , which one carries the higher reported [Ca^2+]/GPR120/Flp-In 10 μM (ratio vs. LA)? Please indicate the selected item by its label.
II
